B1: Pistol ribozyme (parent)
chain: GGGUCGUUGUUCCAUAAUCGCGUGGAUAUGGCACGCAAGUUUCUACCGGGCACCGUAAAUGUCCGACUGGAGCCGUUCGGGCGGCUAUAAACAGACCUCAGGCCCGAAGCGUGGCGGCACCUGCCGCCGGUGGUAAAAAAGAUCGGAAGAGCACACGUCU

Variants of: B1
Test: aptazyme ON/OFF ratio, guanine; higher = stronger switching; co-transcriptional cleavage with and without guanine
parameter: aptazyme ON/OFF ratio
// keep it numeric: no unit symbol after the value

Below, each entry is followed by its recorded aptazyme ON/OFF ratio result.
- U7G G9C U11C: 2.53
- U7C U8G U10C U11C C13A: 1.03
- G9A U10C U11A C12A C13A: 1.28
- U7A U8C U10C U11C C12A C13U: 1.16
- U7G G9U U11G C13U: 1.26
- U7A U8A G9U U11C C12U C13A: 1.18

Returns the measured aptazyme ON/OFF ratio for the input variant. Input: G9U U11A C12G C13A
1.82

What value of measured aptazyme ON/OFF ratio is listed for U8G G9C U10C U11A ?
1.07

Give the measured aptazyme ON/OFF ratio of U7A U10C U11C C12U C13A .
1.03

Data request, read-out aptazyme ON/OFF ratio, for U7A U8C U10C U11C C12G C13G
1.1

What value of aptazyme ON/OFF ratio has been recorded for this entry: U7C G9A U10A U11C C12A C13G
1.1

Quick one: aptazyme ON/OFF ratio for U7G U8A G9A U10G U11C C12A C13A ?
1.1
